pIC50: −log10 of the molar value.
Collected set of pIC50 measured with Dipeptidyl peptidase 4 (Homo sapiens, UniProt P27487) across studies.
ASSAY_ENDPOINT: pIC50

In [3]: df
Out[3]:
                                   compound  result
0  Cc1nc(=O)c2c([nH]1)CCC(CN)(c1cccc(Cl)c1)C2 (centres unmarked)    4.93
1  NC[C@]1(c2cccc(Cl)c2)CC[C@H](n2nc(-c3cnn(Cc4ccccc4)c3)ccc2=O)CC1    6.30
2  N[C@H]1C[C@@H](N2CC3=C(CN(C(=O)C4CCCCC4)C3)C2)CO[C@@H]1c1cc(F)ccc1F  > 7.52
3     CC(C)=CCCC1=C[C@H](c2cc(O)ccc2O)OC1=O    4.81
4  CC(C)COc1ccccc1-c1c(CN)c(NCc2ccc3ccccc3c2)nc2c1c(=O)n(C)c(=O)n2C  < 4.00
5  N[C@H]1C[C@@H](N2CC3CN(Cc4ccccc4)CC3C2)CO[C@@H]1c1cc(F)ccc1F (some centres unmarked)  > 7.00
6  CCS(=O)(=O)N1CC2=C(CN([C@H]3CO[C@H](c4cc(F)ccc4F)[C@@H](N)C3)C2)C1  > 8.00
7  N[C@H]1C[C@@H](N2CC3CN(S(=O)(=O)C(F)(F)F)CC3C2)CO[C@@H]1c1cc(F)ccc1F (some centres unmarked)  > 7.00
